Measured ETS1 binding intensity by item
Biological target: ETS1 (UniProt P14921)
Sequence: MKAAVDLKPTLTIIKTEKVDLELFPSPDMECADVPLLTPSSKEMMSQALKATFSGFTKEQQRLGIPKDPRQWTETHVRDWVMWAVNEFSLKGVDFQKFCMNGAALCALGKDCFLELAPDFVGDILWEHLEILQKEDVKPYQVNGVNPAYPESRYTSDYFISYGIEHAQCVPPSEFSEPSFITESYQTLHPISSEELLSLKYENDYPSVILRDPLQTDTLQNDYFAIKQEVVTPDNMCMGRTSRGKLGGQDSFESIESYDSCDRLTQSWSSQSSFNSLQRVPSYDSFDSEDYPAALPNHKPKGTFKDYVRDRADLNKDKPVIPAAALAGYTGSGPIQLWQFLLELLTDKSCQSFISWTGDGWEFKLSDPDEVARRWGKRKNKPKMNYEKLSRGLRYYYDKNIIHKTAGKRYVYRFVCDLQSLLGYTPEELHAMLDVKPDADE
Test: ETS1 binding intensity (PBM fluorescence), ETS1 alone (arbitrary fluorescence units); higher = stronger binding
Conditions: ETS1 concentration 1 nM; RUNX1 concentration 0 nM

{"columns": ["residues", "ETS1 binding intensity"],
 "data": [
  ["CTCTTTCACAAAGGAAATGGAAACCACAAAGAGGAC", 2140],
  ["CCTGGGGGGCCGGAAGCCCCGCTGCGGCCCCAGCCC", 3060],
  ["GGGCAGGCCGGATGTGGGAGACCACAAAGCCCAAGG", 5360],
  ["TGGGCTTTGCAGGAAGCTGTGGTTCACCTACAGCCT", 1160]
]}

====

In this section we review reported ETS1 binding intensity values for a set of sequences.
Target: ETS1 (UniProt P14921)
Sequence: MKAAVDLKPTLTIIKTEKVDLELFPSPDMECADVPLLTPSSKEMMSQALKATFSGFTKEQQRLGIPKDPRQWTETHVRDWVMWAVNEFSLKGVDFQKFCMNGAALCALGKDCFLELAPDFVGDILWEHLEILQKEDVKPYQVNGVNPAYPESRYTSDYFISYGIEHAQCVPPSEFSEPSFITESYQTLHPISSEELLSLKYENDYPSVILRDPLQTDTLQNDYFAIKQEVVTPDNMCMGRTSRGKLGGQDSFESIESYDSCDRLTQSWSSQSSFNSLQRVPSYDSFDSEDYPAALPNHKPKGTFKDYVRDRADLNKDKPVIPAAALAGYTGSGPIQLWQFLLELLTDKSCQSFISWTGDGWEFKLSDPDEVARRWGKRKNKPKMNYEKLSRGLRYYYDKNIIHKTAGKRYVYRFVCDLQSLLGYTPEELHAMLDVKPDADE
Test: ETS1 binding intensity (PBM fluorescence), ETS1 alone (arbitrary fluorescence units); higher = stronger binding
Conditions: ETS1 concentration 1 nM; RUNX1 concentration 0 nM
measured_attribute: ETS1 binding intensity

{"columns": ["residues", "measured_attribute", "reported_result"],
 "data": [
  ["CTGAAACAGGAAGCTGAGGGTGCGGTTGGGGGAGGA", "ETS1 binding intensity", 2210],
  ["CTGCGAGCTCAGAACGGAAACCACAGCAACTACCGT", "ETS1 binding intensity", 2170],
  ["AGCTGTTTGGTCACAGGATGTGGTTATTAGAATAGG", "ETS1 binding intensity", 4800]
]}
